From: ChEMBL document CHEMBL1135647

Catalogue of pKi readings, one per entry.
# system-under-test: D(4) dopamine receptor (Homo sapiens)
# Sequence (P21917 whole entry): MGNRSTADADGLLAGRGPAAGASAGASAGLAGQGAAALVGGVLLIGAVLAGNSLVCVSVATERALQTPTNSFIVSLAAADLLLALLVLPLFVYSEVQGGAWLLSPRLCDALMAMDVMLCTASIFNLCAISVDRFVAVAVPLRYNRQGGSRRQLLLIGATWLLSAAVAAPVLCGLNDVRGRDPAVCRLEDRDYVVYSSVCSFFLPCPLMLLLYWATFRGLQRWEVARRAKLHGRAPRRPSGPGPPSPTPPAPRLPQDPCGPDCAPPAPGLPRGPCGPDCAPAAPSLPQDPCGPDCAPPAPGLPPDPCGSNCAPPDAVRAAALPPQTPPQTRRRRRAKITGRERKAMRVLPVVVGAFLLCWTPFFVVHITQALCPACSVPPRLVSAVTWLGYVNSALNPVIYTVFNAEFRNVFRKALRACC
# assay-remarks: In vitro binding affinity at human cloned Dopamine receptor D4 expressed in Sf9 cell membranes
Units for pKi: none; it is -log10 of a concentration expressed in mol/L.

> print(dat)
                          structure.notation  assay.value
 1  Cc1ccc2c(c1)C(NC1CCN(Cc3ccccc3)CC1)=Nc1cccnc1N2         7.34
 2  Clc1ccc2c(c1)C(NC1CCN(Cc3ccccc3)CC1)=Nc1cccnc1N2         7.05
 3  Clc1ccc2c(c1)C(N1CCN(CCc3ccccc3)CC1)=Nc1cccnc1N2         7.40
 4  Cc1ccc2c(c1)C(N1CCN(CCc3ccccc3)CC1)=Nc1cccnc1N2         7.43
 5  Cc1ccc2c(c1)C(N1CCN(Cc3ccccc3)CC1)=Nc1cccnc1N2         6.74
 6    Cc1ccc2c(c1)C(N1CCN(C)CC1)=Nc1cccnc1N2         7.44
 7    Clc1ccc2c(c1)C(NCCN1CCCC1)=Nc1cccnc1N2         6.47
 8    CN1CCC(NC2=Nc3cccnc3Nc3ccc(Cl)cc32)CC1         6.41
 9    CN1CCCN(C2=Nc3cccnc3Nc3ccc(Cl)cc32)CC1         6.79
10   Cc1ccc2c(c1)C(N1CCCN(C)CC1)=Nc1cccnc1N2         6.45

For the compound `Cc1ccc2c(c1)C(NC1CCN(C)CC1)=Nc1cccnc1N2` , what pKi is on record?
6.29

* * *

# system-under-test: 5-hydroxytryptamine receptor 2A (Rattus norvegicus)
# Sequence (P14842 whole entry): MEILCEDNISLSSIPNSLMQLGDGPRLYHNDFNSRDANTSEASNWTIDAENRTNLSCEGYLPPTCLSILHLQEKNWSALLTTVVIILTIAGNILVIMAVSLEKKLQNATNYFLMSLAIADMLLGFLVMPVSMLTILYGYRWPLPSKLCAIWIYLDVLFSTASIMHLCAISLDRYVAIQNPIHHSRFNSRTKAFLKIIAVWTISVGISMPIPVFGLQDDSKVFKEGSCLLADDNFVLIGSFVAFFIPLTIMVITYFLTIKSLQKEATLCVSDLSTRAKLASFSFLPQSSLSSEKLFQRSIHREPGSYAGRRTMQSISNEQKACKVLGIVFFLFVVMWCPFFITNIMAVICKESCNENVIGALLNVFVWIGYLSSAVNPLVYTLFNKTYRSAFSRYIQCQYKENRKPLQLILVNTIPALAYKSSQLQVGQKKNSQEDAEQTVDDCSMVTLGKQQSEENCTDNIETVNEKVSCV
# assay-remarks: In vitro binding affinity at 5-hydroxytryptamine 2A receptor in rat cortical membrane
# Format: cell membranes
Catalogue of Ki readings, one per entry.

Some compounds with known Ki results, for comparison:
> print(dat)
                                   compound  assay.value
1  Cc1ccc2c(c1)C(N1CCN(c3ccccc3)CC1)=Nc1cccnc1N2    > 1000 nM
2  Clc1ccc2c(c1)C(N1CCN(Cc3ccccc3)CC1)=Nc1cccnc1N2    > 1000 nM
3  Cc1ccc2c(c1)C(NC1CCN(Cc3ccccc3)CC1)=Nc1cccnc1N2        48 nM
4   Cc1ccc2c(c1)C(NC1CCN(C)CC1)=Nc1cccnc1N2       132 nM

For the compound `FC(F)(F)c1cccc(N2CCN(C3=Nc4cccnc4Nc4ccc(Cl)cc43)CC2)c1` , what Ki is on record?
> 1000 nM

For the compound `Clc1ccc2c(c1)C(N1CCN(C3CCCCC3)CC1)=Nc1cccnc1N2` , what Ki is on record?
34 nM

For the compound `Cc1ccc2c(c1)C(NCCN1CCOCC1)=Nc1cccnc1N2` , what Ki is on record?
> 1000 nM

For the compound `Clc1cccc(N2CCN(C3=Nc4cccnc4Nc4ccc(Cl)cc43)CC2)c1` , what Ki is on record?
> 1000 nM

For the compound `CN1CCC(NC2=Nc3cccnc3Nc3ccc(Cl)cc32)CC1` , what Ki is on record?
123 nM

For the compound `Cc1ccc2c(c1)C(N1CCN(c3cccc(C(F)(F)F)c3)CC1)=Nc1cccnc1N2` , what Ki is on record?
> 1000 nM

For the compound `Cc1ccc2c(c1)C(N1CCN(c3cccc(Cl)c3)CC1)=Nc1cccnc1N2` , what Ki is on record?
> 1000 nM

For the compound `Clc1ccc2c(c1)C(NCCN1CCCCC1)=Nc1cccnc1N2` , what Ki is on record?
357 nM
